Where do these numbers come from? They come from PubChem BioAssay (NCI).

Test system: BT-549 breast
Assay: NCI-60 one-dose screen, 48 h (100 = growth as untreated, 0 = no growth, -100 = all killed)
Conditions: 10 µM unless noted
Procedure: Growth inhibition of the BT-549 human tumor cell line is measured as a screen for anti-cancer activity. Cells are grown in 96 well plates and exposed to the test compound for 48 hours. Compounds are tested at a single concentration, which is 10^-5 M for most compounds. The reported endpoint is percent growth (GI% or GIPRCNT), where numbers from 0 - 100% represent growth inhibition, and numbers from -100% - 0 represent cell death. For example, a value of 40 represents 60% growth inhibition. […]
The panel holds about 83,000 compounds, 20% with a hit somewhere; the sample as a whole holds those more often.
// class assignment uses growth with these ranges: one (below 10%), two (10% to below 80%), three (80% or more)

COc1cc2c(cc1OC)C(Sc1ccc(Cl)cc1)c1c(nc(N)c(C#N)c1N)O2 (stereo not given)
one
COc1ccc(C(=O)c2cc(F)c(F)c(OC)c2F)cc1OC(=O)CCl
two
COc1ccc2[nH]c(=O)c(/C=C/C(=O)/C=C/c3ccc(O)c(OC)c3)cc2c1
one
O=[N+]([O-])c1ccc(N=Nc2c(O)c(N=Nc3cc([N+](=O)[O-])cc([N+](=O)[O-])c3O)cc(N=Nc3cc(S(=O)(=O)O)cc4cc(S(=O)(=O)O)cc(O)c34)c2O)cc1
three
COc1cc(C2=NN(C(C)=O)C(c3cccc(Nc4ccnc5cc(C(F)(F)F)ccc45)c3)C2)cc(OC)c1OC (stereo not given)
two
COc1ccc(C(=S)c2cc(OC)c(OC)c(OC)c2)cc1OC(=O)CCl
two
CCn1cc(C(=O)O)c(=O)c2cc(F)c(N3CCN(CC(=O)Nc4ccc(/C(C)=N/OC)cc4)CC3)cc21
three
CC[C@]12C=CCN3CC[C@@]4(c5ccc(OC)cc5N(C)[C@H]4[C@@](O)(C(=O)OC)[C@@H]1OC(=O)CCC(=O)O[C@H]1CC[C@H]4[C@@H]5CC[C@H]6CC(=O)CC[C@]6(C)[C@H]5CC[C@]14C)[C@@H]32
two
CC(C)Cc1cc(CNC(=O)C2[C@H]3CN(C(=O)c4ccccc4)C[C@@H]23)nn1-c1ccccc1 (stereo not given in full)
three
C[C@H]1[C@H](C)CC[C@]2(C(=O)OCCCC[P+](c3ccccc3)(c3ccccc3)c3ccccc3)CC[C@]3(C)C(=CC[C@@H]4[C@@]5(C)CC[C@H](OC(=O)C(Cl)Cl)C(C)(C)[C@@H]5CC[C@]43C)[C@H]12
one
CCOC(=O)c1ccc(Nc2ncnc3ccc(NC(=O)c4ccccc4)cc23)cc1
three
COCCOCCOCc1n(Cc2ccc3ccccc3c2)c2ccccc2[n+]1Cc1ccc2ccccc2c1
one
CCN(CC)CC#CCOC(=O)[C@]1(C)CCC[C@]2(C)[C@H]3C[C@H]4C(C(C)C)=C[C@]3(CC[C@H]21)[C@@H]1C(=O)CCC(=O)[C@@H]14
two

----------
system: A498 renal; test: NCI-60 one-dose screen, 48 h; settings: 10 µM unless noted
The panel holds about 83,000 compounds, 20% with a hit somewhere; the sample as a whole holds those more often. Activity calls are given as the source filed them. The calls were made as follows: active = growth percent below 10; inactive = the rest.
Classes used: class 1 = active, class 0 = inactive

CN1CCN(CC#CCOC(=O)CNC(=O)[C@]23CCC(C)(C)C[C@H]2C2=CC[C@@H]4[C@@]5(C)CC[C@H](O)C(C)(C)[C@@H]5CC[C@@]4(C)[C@]2(C)CC3)CC1
class 0
O=C1CCc2ccccc2N1
class 0
COc1cc(NC(=O)c2cc(O)c(C/C=C(\C)CCC=C(C)C)c(O)c2)cc2c1O[C@]1(C)CC[C@@H](O)C(C)(C)[C@H]1C2
class 1
CNC(=O)c1cc(Oc2ccc3c(c2)sc2nc(-c4ccc(NC(C)=O)cc4)cn23)ccn1
class 1
CCC[S@@](=O)c1ccc2nc(NC(=O)OC)[nH]c2c1
class 0
COC(=O)/C=C/c1cc(OC)c2c(c1)[C@@H](C(=O)OC)[C@H](c1ccc(OC)c(OC)c1)O2
class 0
COc1ccc(-n2nc(C(=O)NCC(=O)O)nc2-c2ccccc2)cc1
class 0
CCC1=C[C@H]2CN(CCc3c([nH]c4ccccc34)[C@@](C(=O)OC)(c3cc4c(cc3OC)N(C)[C@H]3[C@@](O)(C(=O)OC)[C@H](OC(C)=O)[C@]5(CC)[C@@H]6C[C@@H]6CN6CC[C@]43[C@@H]65)C2)C1
class 1
CCOC(=O)c1c(C)nc2c(c1N)/C(=C/c1cccs1)C(=O)N2c1ccc(OC)cc1
class 0
NCCCn1c2c(c3cc(-c4ccn[nH]4)ccc3c1=O)C(=O)c1ccccc1-2
class 0
C=C1C(=O)O[C@H]2[C@H]1CC/C(COC(=O)CCCCC(=O)OC/C1=C/CC[C@@]3(C)O[C@H]3[C@H]3OC(=O)C(=C)[C@@H]3CC1)=C\CC[C@@]1(C)O[C@@H]21
class 0
C#C[C@@]1(O)[C@@H](CO)O[C@@H](n2cc(I)c3c(N)ncnc32)[C@@H]1O
class 1
CCCCc1ccc(N=Nc2ccc(OCC[N+](C)(C)C)cc2)cc1
class 0
COc1ccc(-n2cc(-c3ccc(Cl)c(Cl)c3)[nH]c2=O)cc1OC
class 0
COc1ccc(NC(=O)c2ccc(Nc3ncnc4[nH]c(C)c(C)c34)cc2)cc1
class 0
CC1CCCN(CCCCCOc2ccc3oc4ccccc4c(=O)c3c2)C1 (stereo not drawn)
class 0
Oc1ccccc1-c1nc2c3ccccc3c3ccccc3c2o1
class 0
S=C(Nc1ccc(Cl)cc1)c1ccccn1
class 0

----------
test system: HCC-2998 colon; test: NCI-60 one-dose screen, 48 h (100 = growth as untreated, 0 = no growth, -100 = all killed); conditions: 10 µM unless noted
Compounds without any hit were thinned out: in the full panel of roughly 83,000, 20% have a hit.
endpoint: growth (%)

Nc1ccc(C2=NN(C(=O)c3cc(-c4ccc(Cl)cc4)nc4ccccc34)C(c3ccc(Cl)cc3)C2)cc1 (stereo not drawn)
62.9
O=C1CS/C(=N/c2nnc(-c3ccc(O)cc3)s2)N1
102
Cc1ccc(SC2c3ccc(C)cc3Oc3nc(N)c(C#N)c(N)c32)cc1 (stereo not drawn)
103
COc1ccc(C2=NN(c3ccc(S(N)(=O)=O)cc3)C(c3ccc(Cl)cc3)C2)c(O)c1 (stereo not drawn)
60.6
COc1cc(NCC(=O)Nc2cc(Nc3ccc(C)cc3)ncn2)c(Cl)c(OC)c1Cl
92.6
O=C1Nc2ccc(Cl)cc2/C1=N/c1nc(-c2ccc(F)cc2)cs1
42.2
COc1ccc(-c2cc(C(=O)N3N=C(c4ccc(N)cc4)CC3c3ccc(OC)cc3)c3cc(OC)ccc3n2)cc1 (stereo not drawn)
91.6
C[C@H]1[C@H](C)CC[C@]2(C(=O)OCCOCCOCC[P+](c3ccccc3)(c3ccccc3)c3ccccc3)CC[C@]3(C)C(=CC[C@@H]4[C@@]5(C)CC[C@H](OC(=O)C(Cl)Cl)C(C)(C)[C@@H]5CC[C@]43C)[C@H]12
19.1
COc1ccc(Nc2nc(SCC(C)C)nc(-c3ccc(F)cc3)c2C#N)cc1
92.8
Cc1ccc(-c2nc(C#N)c(S(=O)(=O)N(C)CCO)o2)cc1
107
O=C(CCc1nnc2sc(OCc3ccccc3)nn12)c1nc2ccc([N+](=O)[O-])cc2[nH]1
101
CC(C)C1=C[C@@]23CC[C@H]4[C@](C)(COCCC#N)CCC[C@]4(C)[C@H]2C[C@@H]1[C@@H]1[C@H]3[C@@H](OCCC#N)CC[C@@H]1OCCC#N
44.4
COc1ccccc1N1CCN(CCCOc2ccc(C(=O)/C=C3/C(=O)Nc4ccccc43)cc2)CC1
60.2
CSc1cccc(NC(=O)Nc2nc3c(C)cccc3s2)c1
106
NC(=N\N=C\c1ccccc1O)/C(N)=N/N=C/c1ccccc1O
99.1
CC(C)(C)c1nc2c(s1)c1nc(N)ncc1c1ccc(NS(=O)(=O)c3c(F)cccc3F)c(F)c12
82
COc1ccc(-c2cc(-c3nnc(SCC(=O)Nc4ccc(/C(C)=N\O)cc4)o3)c3ccccc3n2)cc1
101
N#Cc1c(-c2ccc(Cl)cc2)cc(-c2cc3ccccc3o2)nc1SCC(=O)c1ccc(Cl)cc1
102

----------
Test system: CCRF-CEM leukemia
Experiment: NCI-60 one-dose screen, 48 h (100 = growth as untreated, 0 = no growth, -100 = all killed)
Settings: 10 µM unless noted
Experimental: Growth inhibition of the CCRF-CEM human tumor cell line is measured as a screen for anti-cancer activity. Cells are grown in 96 well plates and exposed to the test compound for 48 hours. Compounds are tested at a single concentration, which is 10^-5 M for most compounds. The reported endpoint is percent growth (GI% or GIPRCNT), where numbers from 0 - 100% represent growth inhibition, and numbers from -100% - 0 represent cell death. For example, a value of 40 represents 60% growth inhibition. […]
Compounds without any hit were thinned out: in the full panel of roughly 83,000, 20% have a hit. Calls of active or inactive are those of the source. The calls were made as follows: active = growth percent below 10; inactive = the rest.
endpoint: growth

N#Cc1c(-c2ccc(F)cc2)c(C#N)c2c(C#N)c(N)nn2c1N
104% (inactive)
CCOC(=O)c1c(C)nc2c(c1N)/C(=C/c1cccs1)C(=O)N2Cc1ccccc1
29.8% (inactive)
O=C1Nc2ccccc2C12C=C(c1ccccc1)Nc1c2c(-c2ccccc2)nn1-c1ccccc1 (stereo not drawn)
25.9% (inactive)
O=C(C[n+]1cccc2cc(Cl)ccc21)c1ccc2c(c1)CCCC2
16% (inactive)
O=C(N/N=C/C[C@@H]1[C@@H](/C=C/[C@@H](O)COc2cccc(Cl)c2)[C@H](O)C[C@@H]1O)c1ccncc1
98% (inactive)
CC(=O)[C@@H]1CC[C@]2(C(=O)O)CC[C@]3(C)[C@H](CC[C@@H]4[C@@]5(C)Cc6c([nH]c7ccccc67)C(C)(C)[C@@H]5CC[C@]43C)[C@@H]12
62.9% (inactive)
CC(=O)Nc1nc2c(c(N)c1C#N)C(c1cccc(Cl)c1)C1=C(CCCC1=O)N2c1sc2c(c1C#N)CCCC2 (stereo not drawn)
50.4% (inactive)
CCOC(=O)c1c(C)nc2c(c1N)CC(=O)N2CCc1ccccc1
9.62% (active)
